# test system: D(2) dopamine receptor (Homo sapiens) (UniProt P14416)
# Sequence (P14416 whole entry): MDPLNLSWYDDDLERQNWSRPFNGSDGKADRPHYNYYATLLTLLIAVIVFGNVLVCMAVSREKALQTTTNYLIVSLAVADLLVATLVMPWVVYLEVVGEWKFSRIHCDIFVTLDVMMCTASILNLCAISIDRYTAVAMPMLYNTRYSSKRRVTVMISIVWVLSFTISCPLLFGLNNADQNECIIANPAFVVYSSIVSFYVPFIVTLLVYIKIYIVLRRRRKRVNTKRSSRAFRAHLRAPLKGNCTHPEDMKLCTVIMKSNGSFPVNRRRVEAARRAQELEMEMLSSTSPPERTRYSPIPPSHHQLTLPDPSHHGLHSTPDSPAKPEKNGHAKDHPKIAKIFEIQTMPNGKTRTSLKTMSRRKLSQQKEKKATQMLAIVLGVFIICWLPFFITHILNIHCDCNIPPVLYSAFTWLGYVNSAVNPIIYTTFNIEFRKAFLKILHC
# test details: Displacement of [3H]YM091512 from dopamine D2 receptor at 10 uM
property label: Activity (%)
# number only, unit % dropped from output

[[record]]
compound = "CC1CN(Cc2ccc(CN3c4ccccc4Sc4ccc(C(F)(F)F)cc43)cc2)CC(C)O1 (stereo unspecified)"
test_system = "D(2) dopamine receptor (Homo sapiens) (UniProt P14416)"
meas_value = 75

[[record]]
compound = "CN1CCCC(CN2c3ccccc3Sc3cccnc32)C1 (stereo unspecified)"
test_system = "D(2) dopamine receptor (Homo sapiens) (UniProt P14416)"
meas_value = 86

[[record]]
compound = "FC(F)(F)c1ccc2c(c1)N(CCCNc1ccccn1)c1ccccc1S2"
test_system = "D(2) dopamine receptor (Homo sapiens) (UniProt P14416)"
meas_value = 85

[[record]]
compound = "CN1CCCC(CN2c3ccccc3Sc3ccccc32)C1 (stereo unspecified) [MEPAZINE]"
test_system = "D(2) dopamine receptor (Homo sapiens) (UniProt P14416)"
meas_value = 88


Entry COc1ccc2c(c1)Sc1ccccc1N2CC1CCCN(C)C1 (stereo unspecified) ; Activity = 75

Entry CC(CO)NCCCN1c2ccccc2Sc2ccc(C(F)(F)F)cc21 (stereo unspecified) ; Activity = 100

Entry CN1CCCC(CN2c3ccccc3Sc3ccc(-c4ccccc4)cc32)C1 (stereo unspecified) ; Activity = 97

Entry "FC(F)(F)c1ccc2c(c1)N(Cc1ccc(CN3CCN(c4ncccn4)CC3)cc1)c1ccccc1S2" ; Activity = 72

Entry CN1CCCC(CN2c3ccccc3Sc3cc(F)ccc32)C1 (stereo unspecified) ; Activity = 87

Entry "CN1CCN(Cc2ccc(CN3c4ccccc4Sc4ccc(C(F)(F)F)cc43)cc2)CC1" ; Activity = 14

Entry OC1CCN(CCCN2c3ccccc3Sc3ccc(C(F)(F)F)cc32)C1 (stereo unspecified) ; Activity = 74

---

# test system: D(2) dopamine receptor (Homo sapiens) (UniProt P14416)
# test details: Displacement of [3H]YM091512 from dopamine D2 receptor at 10 uM
Lab note: anything with Activity below 70% is marked label 1; values at 70% or higher are marked label 0.

Reference set (5 entries):
[[record]]
molecule = "FC(F)(F)c1ccc2c(c1)N(CCCN1c3ccccc3Sc3ccc(C(F)(F)F)cc31)c1ccccc1S2"
label = "label 1"

[[record]]
molecule = "FC(F)(F)c1ccc2c(c1)N(CCCNc1nccs1)c1ccccc1S2"
label = "label 0"

[[record]]
molecule = "FC(F)(F)c1ccc2c(c1)N(CCCN1CCN(c3ncccn3)CC1)c1ccccc1S2"
label = "label 1"

[[record]]
molecule = "CC(CO)NCc1ccc(CN2c3ccccc3Sc3ccc(C(F)(F)F)cc32)cc1 (stereo not given)"
label = "label 0"

[[record]]
molecule = "CN1CCCC(CN2c3ccccc3Sc3cc(Cl)ccc32)C1 (stereo not given)"
label = "label 0"


Please determine if CN1CCCC(CN2c3ccccc3Sc3cc(-c4ccccc4)ccc32)C1 (stereo not given) is below 70% in terms of Activity.
label 0

Please determine if CN1CCCC(CN2c3ccccc3Sc3cc(N4CCOCC4)ccc32)C1 (stereo not given) is below 70% in terms of Activity.
label 1

Please determine if "FC(F)(F)c1ccc2c(c1)N(CCCNCc1ccccc1)c1ccccc1S2" is below 70% in terms of Activity.
label 0

Please determine if "FC(F)(F)c1ccc2c(c1)N(Cc1ccc(CNCc3ccccc3)cc1)c1ccccc1S2" is below 70% in terms of Activity.
label 1

Please determine if "FC(F)(F)c1ccc2c(c1)N(Cc1ccc(CN3c4ccccc4Sc4ccc(C(F)(F)F)cc43)cc1)c1ccccc1S2" is below 70% in terms of Activity.
label 1
